Molecular target: Amine oxidase [flavin-containing] A (Homo sapiens, UniProt P21397)
Assay: Inhibition of human recombinant MAOA using kynuramine as substrate incubated for 10 mins by UPLC-ESI-MS/MS analysis
outcome-measure: log10 IC50 (log10 of the value in µM)
// units: µM (pre-log); metric: IC50; scale: log10

Please review the entries below; each comes with its answer.
- input-smiles: "CCCCc1cc(C)c2c(c1O)C(=O)O[C@H](C)C2"
  readout-value: 1.26
- input-smiles: "Cc1ccc(O)c2c1C[C@@H](C)OC2=O"
  readout-value: 0.66
- input-smiles: "CC[C@@H]1Cc2c(C)cc(-c3ccc(N)cc3)c(O)c2C(=O)O1"
  readout-value: -0.52
- input-smiles: "Cc1cc(Cl)c(O)c2c1C[C@@H](C)OC2=O"
  readout-value: 0.34
- input-smiles: "Cc1cc(-c2ccncc2)c(O)c2c1C[C@@H](C)OC2=O"
  readout-value: 0.43
- input-smiles: "Cc1cc(-c2ccc(N)cc2)c(O)c2c1C[C@@H](C)OC2=O"
  readout-value: -0.10
- input-smiles: "Cc1cc([N+](=O)[O-])c(O)c2c1C[C@@H](C)OC2=O"
  readout-value: 1.20
- input-smiles: "Cc1cc(N)c(O)c2c1C[C@@H](C)OC2=O"
  readout-value: 0.61
- input-smiles: "Cc1cc(I)c(O)c2c1C[C@@H](C)OC2=O"
  readout-value: 1.20
- input-smiles: "Cc1cc(CO)c(O)c2c1C[C@@H](C)OC2=O"
  readout-value: 1.28

[in] Which log10 IC50 reading was recorded for the compound `CCCc1cc(C)c2c(c1O)C(=O)O[C@H](C)C2` ?
[out] 0.65

[in] Which log10 IC50 reading was recorded for the compound `C[C@H]1Cc2cccc(O)c2C(=O)O1` ?
[out] 0.88

[in] Which log10 IC50 reading was recorded for the compound `Cc1cc(N(C)C)c(O)c2c1C[C@@H](C)OC2=O` ?
[out] 1.13

[in] Which log10 IC50 reading was recorded for the compound `Cc1cc(-c2cccnc2)c(O)c2c1C[C@@H](C)OC2=O` ?
[out] -0.70

* * *

Biological target: Amine oxidase [flavin-containing] B (Homo sapiens, UniProt P27338)
Sequence (P27338 whole entry): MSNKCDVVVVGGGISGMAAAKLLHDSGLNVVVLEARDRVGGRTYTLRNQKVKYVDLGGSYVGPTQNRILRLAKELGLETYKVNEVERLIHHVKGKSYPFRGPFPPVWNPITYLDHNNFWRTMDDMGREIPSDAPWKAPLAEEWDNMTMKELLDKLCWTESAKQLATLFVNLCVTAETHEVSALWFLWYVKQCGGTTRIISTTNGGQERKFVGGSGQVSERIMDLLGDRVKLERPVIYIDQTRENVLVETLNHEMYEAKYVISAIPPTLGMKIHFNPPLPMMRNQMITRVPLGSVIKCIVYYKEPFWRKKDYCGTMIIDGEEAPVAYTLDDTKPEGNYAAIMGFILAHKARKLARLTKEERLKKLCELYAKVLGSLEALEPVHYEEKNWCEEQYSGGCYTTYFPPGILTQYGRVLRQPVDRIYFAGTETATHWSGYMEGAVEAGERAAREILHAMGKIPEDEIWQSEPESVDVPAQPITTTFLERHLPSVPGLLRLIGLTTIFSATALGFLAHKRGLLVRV
Assay: Inhibition of human recombinant MAOB using kynuramine as substrate incubated for 10 mins by UPLC-ESI-MS/MS analysis
pIC50: −log10 of the molar value.
Property: pIC50; scope: individual molecules

- molecule: "Cc1cc(-c2ccc(O)cc2)c(O)c2c1C[C@@H](C)OC2=O"
  pIC50: 4.41
- molecule: "C[C@@H]1Cc2c(O)ccc(O)c2C(=O)O1"
  pIC50: "< 4.30"

[in] Which pIC50 reading was recorded for the molecule `Cc1cc(-c2ccccn2)c(O)c2c1C[C@@H](C)OC2=O` ?
[out] < 4.30

[in] Which pIC50 reading was recorded for the molecule `Cc1cc(N(C)C)c(O)c2c1C[C@@H](C)OC2=O` ?
[out] < 4.30

[in] Which pIC50 reading was recorded for the molecule C[C@@H]1Cc2cccc(O)c2C(=O)O1 [(-)-(R)-MELLEIN] ?
[out] 4.30

[in] Which pIC50 reading was recorded for the molecule `Cc1cc(-c2ccncc2)c(O)c2c1C[C@@H](C)OC2=O` ?
[out] < 4.30

* * *

Molecular target: Amine oxidase [flavin-containing] A (Homo sapiens, UniProt P21397)
Test: Inhibition of human recombinant MAOA using kynuramine as substrate incubated for 10 mins by UPLC-ESI-MS/MS analysis
Property: IC50; scope: individual compounds

Please review the entries below; each comes with its answer.
- input-smiles: "C[C@@H]1Cc2c(CO)ccc(O)c2C(=O)O1"
  IC50: "> 50 µM"
- input-smiles: "COc1ccc(C)c2c1C(=O)O[C@H](C)C2"
  IC50: "> 50 µM"
- input-smiles: "C[C@@H]1Cc2c(C(=O)O)ccc(O)c2C(=O)O1"
  IC50: "> 50 µM"

Please turn your attention to the following entry.
[in] Which IC50 reading was recorded for the compound `Cc1cc(C(=O)N(C)C)c(O)c2c1C[C@@H](C)OC2=O` ?
[out] > 50 µM

* * *

Organism: Homo sapiens
Test: Selectivity index, ratio of IC50 for human recombinant MAOB to IC50 for human recombinant MAOA
outcome-measure: Ratio IC50

Please review the entries below; each comes with its answer.
- compound: "Cc1cc(N)c(O)c2c1C[C@@H](C)OC2=O"
  readout-value: "> 11"
- compound: "CC[C@@H]1Cc2c(C)cc(-c3cncnc3)c(O)c2C(=O)O1"
  readout-value: "> 830"
- compound: "Cc1cc(-c2ccccc2)c(O)c2c1C[C@@H](C)OC2=O"
  readout-value: 0.1
- compound: "Cc1cc(Cl)c(O)c2c1C[C@@H](C)OC2=O"
  readout-value: "> 22"
- compound: "Cc1cc(-c2ccccn2)c(O)c2c1C[C@@H](C)OC2=O"
  readout-value: "> 24"
- compound: "C[C@H]1Cc2cccc(O)c2C(=O)O1"
  readout-value: 3.2

[in] Which Ratio IC50 reading was recorded for the compound `Cc1cc2cccc(O)c2c(=O)o1` ?
[out] > 2

[in] Which Ratio IC50 reading was recorded for the compound `Cc1cc(-c2cccc(N)c2)c(O)c2c1C[C@@H](C)OC2=O` ?
[out] > 250

[in] Which Ratio IC50 reading was recorded for the compound C[C@@H]1Cc2cccc(O)c2C(=O)O1 [(-)-(R)-MELLEIN] ?
[out] 8.1

* * *

Target: Amine oxidase [flavin-containing] A (Homo sapiens)
Assay: Inhibition of human recombinant MAOA using kynuramine as substrate incubated for 10 mins by UPLC-ESI-MS/MS analysis
pIC50: −log10 of the molar value.
outcome-measure: pIC50

Please review the entries below; each comes with its answer.
- input-smiles: "Cc1cc(C(=O)N2CCOCC2)c(O)c2c1C[C@@H](C)OC2=O"
  readout-value: "< 4.30"
- input-smiles: "Cc1cc(C#N)c(O)c2c1C[C@@H](C)OC2=O"
  readout-value: "< 4.30"

[in] Which pIC50 reading was recorded for the compound `CCc1ccc(O)c2c1C[C@@H](C)OC2=O` ?
[out] < 4.30

[in] Which pIC50 reading was recorded for the compound `COc1ccc(C)c2c1C(=O)O[C@@H](C)C2` ?
[out] < 4.30

* * *

Molecular target: Amine oxidase [flavin-containing] B (Homo sapiens, UniProt P27338)
Test: Inhibition of human recombinant MAOB using kynuramine as substrate incubated for 10 mins by UPLC-ESI-MS/MS analysis
outcome-measure: IC50

- input-smiles: "Cc1cc(C(=O)NCCN2CCOCC2)c(O)c2c1C[C@@H](C)OC2=O"
  outcome-measure: "IC50"
  readout-value: "> 50 µM"
- input-smiles: "Cc1cc(C)c2c(c1O)C(=O)O[C@H](C)C2"
  outcome-measure: "IC50"
  readout-value: "> 50 µM"
- input-smiles: "Cc1cc(C(=O)N(C)C)c(O)c2c1C[C@@H](C)OC2=O"
  outcome-measure: "IC50"
  readout-value: "> 50 µM"

[in] # value lookup — system Amine oxidase [flavin-containing] B (Homo sapiens, UniProt P27338), readout IC50, item `Cc1cc(-c2cncnc2)c(O)c2c1C[C@@H](C)OC2=O`
[out] > 50 µM

[in] # value lookup — system Amine oxidase [flavin-containing] B (Homo sapiens, UniProt P27338), readout IC50, item `Cc1ccc(O)c2c1CC(C)(C)OC2=O`
[out] > 50 µM

[in] # value lookup — system Amine oxidase [flavin-containing] B (Homo sapiens, UniProt P27338), readout IC50, item `Cc1cc(-c2ccccc2)c(O)c2c1C[C@@H](C)OC2=O`
[out] 1 µM

* * *

Property: IC50; scope: individual molecules
Biological target: Amine oxidase [flavin-containing] A (Homo sapiens, UniProt P21397)
Sequence (P21397 whole entry): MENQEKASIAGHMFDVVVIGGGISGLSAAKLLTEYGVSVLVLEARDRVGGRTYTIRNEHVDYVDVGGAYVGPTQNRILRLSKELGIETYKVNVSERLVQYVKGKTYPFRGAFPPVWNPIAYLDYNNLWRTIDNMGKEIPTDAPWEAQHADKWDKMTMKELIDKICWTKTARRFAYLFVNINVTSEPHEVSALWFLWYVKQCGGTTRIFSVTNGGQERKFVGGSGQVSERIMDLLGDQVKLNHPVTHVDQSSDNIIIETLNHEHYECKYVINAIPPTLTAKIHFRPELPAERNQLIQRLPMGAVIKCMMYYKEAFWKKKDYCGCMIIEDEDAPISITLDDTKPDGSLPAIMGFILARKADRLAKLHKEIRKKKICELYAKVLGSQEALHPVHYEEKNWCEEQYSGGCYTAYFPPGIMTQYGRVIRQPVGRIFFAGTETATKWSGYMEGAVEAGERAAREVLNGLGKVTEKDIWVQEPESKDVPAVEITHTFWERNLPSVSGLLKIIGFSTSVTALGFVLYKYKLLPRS
Test: Inhibition of human recombinant MAOA using kynuramine as substrate incubated for 10 mins by UPLC-ESI-MS/MS analysis

Please review the entries below; each comes with its answer.
- input-smiles: "Cc1cc(C(=O)O)c(O)c2c1C[C@@H](C)OC2=O"
  IC50: "> 50 µM"
- input-smiles: "COc1cccc2c1C(=O)O[C@H](C)C2"
  IC50: "> 50 µM"
- input-smiles: "Cc1ccc(O)c2c1C[C@H](C)OC2=O"
  IC50: "4.1 µM"
- input-smiles: "C=CC(=O)Nc1cc(C)c2c(c1O)C(=O)O[C@H](C)C2"
  IC50: "> 50 µM"

Please turn your attention to the following entry.
[in] # value lookup — system Amine oxidase [flavin-containing] A (Homo sapiens, UniProt P21397), readout IC50, item `Cc1cc(C(=O)N2CCN(C)CC2)c(O)c2c1C[C@@H](C)OC2=O`
[out] > 50 µM
